# assay_system: CDK9/Cyclin T (Homo sapiens (Human))
# Sequence (P50750 whole entry): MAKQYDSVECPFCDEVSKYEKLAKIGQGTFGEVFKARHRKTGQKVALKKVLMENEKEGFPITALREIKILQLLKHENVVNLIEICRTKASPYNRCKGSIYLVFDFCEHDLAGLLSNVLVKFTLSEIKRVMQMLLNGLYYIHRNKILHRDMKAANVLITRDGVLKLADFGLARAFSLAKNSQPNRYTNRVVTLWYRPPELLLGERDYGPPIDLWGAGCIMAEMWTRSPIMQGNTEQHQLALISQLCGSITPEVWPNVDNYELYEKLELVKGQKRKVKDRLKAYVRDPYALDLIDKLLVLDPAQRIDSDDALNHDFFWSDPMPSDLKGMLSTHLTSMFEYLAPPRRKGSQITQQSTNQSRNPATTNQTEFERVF
# Sequence (O60563 whole entry partner): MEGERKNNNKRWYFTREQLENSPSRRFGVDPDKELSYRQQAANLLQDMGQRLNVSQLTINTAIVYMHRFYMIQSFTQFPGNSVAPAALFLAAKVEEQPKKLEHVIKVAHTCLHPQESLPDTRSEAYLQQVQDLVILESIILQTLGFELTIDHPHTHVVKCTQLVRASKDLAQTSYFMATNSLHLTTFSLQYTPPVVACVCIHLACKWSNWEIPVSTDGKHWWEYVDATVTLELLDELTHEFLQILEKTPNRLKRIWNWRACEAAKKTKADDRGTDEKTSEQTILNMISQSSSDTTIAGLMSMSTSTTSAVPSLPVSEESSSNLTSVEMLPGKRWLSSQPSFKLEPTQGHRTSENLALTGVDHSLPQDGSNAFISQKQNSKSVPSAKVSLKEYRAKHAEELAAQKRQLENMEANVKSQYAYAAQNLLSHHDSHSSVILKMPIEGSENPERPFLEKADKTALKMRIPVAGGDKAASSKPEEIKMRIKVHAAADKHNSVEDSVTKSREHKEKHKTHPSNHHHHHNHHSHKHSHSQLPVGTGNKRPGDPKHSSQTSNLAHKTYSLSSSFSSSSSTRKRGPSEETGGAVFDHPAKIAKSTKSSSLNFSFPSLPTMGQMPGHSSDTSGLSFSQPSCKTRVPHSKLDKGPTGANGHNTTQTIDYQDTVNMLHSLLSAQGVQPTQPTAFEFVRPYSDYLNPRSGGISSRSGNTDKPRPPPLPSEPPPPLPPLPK
# assay_overview: CDK9/Cyclin T kinase assay (Biological Table 3)
observation_type: pIC50
Friendly reminder that pIC50 comes from taking -log10 of the concentration in mol/L.

Would you please look over these solved cases?
• CN1CCN(c2cnc(Nc3ncc4cc5n(c4n3)C3(CCCCC3)CNC5=O)nc2)CC1 [Compound 28] = 6.00
• CO[C@H]1CC[C@@]2(CC1)CNC(=O)c1cc3cnc(Nc4ccc(N5CCN(C)CC5)cn4)nc3n12 [Compound 38] = 6.70
• CN1CCN(c2ccc(Nc3ncc4cc5n(c4n3)C3(CCCCC3)C(=O)NC5)nc2)CC1 [Compound 33] = 5.52

Determine from records and report pIC50 for O=C1NCC2(CCCCC2)n2c1cc1cnc(N[C@H]3CC[C@H](N4CCN(CC5CC5)CC4)CC3)nc12 [Compound 36]
8.70

Determine from records and report pIC50 for O=C1NCC2(CCCCC2)n2c1cc1cnc(N[C@H]3CC[C@@H](N4CCN(CC5CC5)CC4)CC3)nc12 [Compound 40]
7.30

Just for reference, patent US10829490B2 is where these values come from.
